- test-target: Cynomolgus Factor P (cynomolgus)
- protocol-details: cell-based or functional assay
Measured Zymosan-C3b IC50 (nM), 10% serum values are reported for all entries that follow.
Give just the number in nM; leave the unit off.

Here's what some known entries look like.
binder="NVS962-G (Fab, V domains shown, NVS962 with heavy chain N30 replaced with glycine) VH: EVQLVQSGAEVKKPGSSVKVSCKASGGTFGSYAISWVRQAPGQGLEWMGRIIPIFGTANYAQKFQGRVTITADESTSTAYMELSSLRSEDTAVYYCARHGGYSFDSWGQGTLVTVSS VL: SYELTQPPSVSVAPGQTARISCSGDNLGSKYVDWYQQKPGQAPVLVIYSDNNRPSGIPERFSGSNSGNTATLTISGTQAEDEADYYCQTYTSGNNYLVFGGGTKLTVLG" value_observed=2.94
binder="NVS963 (Fab, V domains shown, Disulfide-bridged Fab; also called Fab NVS963) VH: EVQLVQSGAEVKKPGSSVKVSCKASGGTFSSYAISWVRQAPGQGLEWMGPINPYYGDAIYAQKFQGRVTITADESTSTAYMELSSLRSEDTAVYYCARYYSDYMDYWGQGTLVTVSS VL: QSVLTQPPSVSGAPGQRVTISCTGSSSNIGAGYDVHWYQQLPGTAPKLLIHDNSHRPSGVPDRFSGSKSGTSASLAITGLQSEDEADYYCASYDESAHSVFGGGTKLTVLG" value_observed=9.75
binder="NVS966 (Fab, V domains shown, Disulfide-bridged Fab; also called Fab NVS966) VH: EVQLVQSGAEVKKPGESLKISCKGSGYSFTNYWIGWVRQMPGKGLEWMGRIDPGESLTNYAPSFQGQVTISADKSISTAYLQWSSLKASDTAMYYCARTGVADVDMPFAHWGQGTLVTVSS VL: SYVLTQPPSVSVAPGKTARISCSGDNLGSYYVNWYQQKPGQAPVLVIYGDSERPSGIPERFSGSNSGNTATLTISRAQAGDEADYYCGSWDITSFVFGGGTKLTVLG" value_observed=6.62
binder="NVS965 (Fab, V domains shown, Disulfide-bridged Fab; also called Fab NVS965) VH: EVQLVQSGAEVKKPGSSVKVSCKASGGTFNSYAISWVRQAPGQGLEWMGRIIPIFGTANYAQKFQGRVTITADESTSTAYMELSSLRSEDTAVYYCARHGGYSFDSWGQGTLVTVSS VL: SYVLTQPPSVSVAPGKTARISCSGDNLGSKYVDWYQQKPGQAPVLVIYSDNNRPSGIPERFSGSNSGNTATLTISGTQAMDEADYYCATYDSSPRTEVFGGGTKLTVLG" value_observed=6.36

Exercise: Give the measured Zymosan-C3b IC50 (nM), 10% serum of NVS967 (Fab, V domains shown, Disulfide-bridged Fab; also called Fab NVS967) VH: EVQLVQSGAEVKKPGASVKVSCKASGYTFTSHYMHWVRQAPGQGLEWMGNINPVDGGTEYAQKFQGRVTMTRDTSISTAYMELSSLRSEDTAVYYCARDGIEHGGHYYWGYLFDIWGQGTLVTVSS VL: SYVLTQPPSVSVAPGKTARISCSGDSIREYYVHWYQQKPGQAPVLVIGDDTNRPSGIPERFSGSNSGNTATLTISRAQAGDEADYYCAAWDFSPAIVFGGGTKLTVLG .
Key: 5.92

Exercise: Give the measured Zymosan-C3b IC50 (nM), 10% serum of NVS962 (Fab, V domains shown, also called Fab NVS962) VH: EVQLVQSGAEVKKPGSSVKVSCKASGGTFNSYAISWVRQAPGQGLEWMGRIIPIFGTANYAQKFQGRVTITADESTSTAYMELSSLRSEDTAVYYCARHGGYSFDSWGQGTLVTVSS VL: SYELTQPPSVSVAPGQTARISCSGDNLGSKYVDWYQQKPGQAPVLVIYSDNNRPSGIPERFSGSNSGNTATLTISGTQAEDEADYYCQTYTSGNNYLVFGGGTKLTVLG .
Key: 9.91
